system under test: EGFR L858R/C797S (Homo sapiens, UniProt P00533, C797S/L858R)
Sequence (P00533 25-1210 C797S/L858R): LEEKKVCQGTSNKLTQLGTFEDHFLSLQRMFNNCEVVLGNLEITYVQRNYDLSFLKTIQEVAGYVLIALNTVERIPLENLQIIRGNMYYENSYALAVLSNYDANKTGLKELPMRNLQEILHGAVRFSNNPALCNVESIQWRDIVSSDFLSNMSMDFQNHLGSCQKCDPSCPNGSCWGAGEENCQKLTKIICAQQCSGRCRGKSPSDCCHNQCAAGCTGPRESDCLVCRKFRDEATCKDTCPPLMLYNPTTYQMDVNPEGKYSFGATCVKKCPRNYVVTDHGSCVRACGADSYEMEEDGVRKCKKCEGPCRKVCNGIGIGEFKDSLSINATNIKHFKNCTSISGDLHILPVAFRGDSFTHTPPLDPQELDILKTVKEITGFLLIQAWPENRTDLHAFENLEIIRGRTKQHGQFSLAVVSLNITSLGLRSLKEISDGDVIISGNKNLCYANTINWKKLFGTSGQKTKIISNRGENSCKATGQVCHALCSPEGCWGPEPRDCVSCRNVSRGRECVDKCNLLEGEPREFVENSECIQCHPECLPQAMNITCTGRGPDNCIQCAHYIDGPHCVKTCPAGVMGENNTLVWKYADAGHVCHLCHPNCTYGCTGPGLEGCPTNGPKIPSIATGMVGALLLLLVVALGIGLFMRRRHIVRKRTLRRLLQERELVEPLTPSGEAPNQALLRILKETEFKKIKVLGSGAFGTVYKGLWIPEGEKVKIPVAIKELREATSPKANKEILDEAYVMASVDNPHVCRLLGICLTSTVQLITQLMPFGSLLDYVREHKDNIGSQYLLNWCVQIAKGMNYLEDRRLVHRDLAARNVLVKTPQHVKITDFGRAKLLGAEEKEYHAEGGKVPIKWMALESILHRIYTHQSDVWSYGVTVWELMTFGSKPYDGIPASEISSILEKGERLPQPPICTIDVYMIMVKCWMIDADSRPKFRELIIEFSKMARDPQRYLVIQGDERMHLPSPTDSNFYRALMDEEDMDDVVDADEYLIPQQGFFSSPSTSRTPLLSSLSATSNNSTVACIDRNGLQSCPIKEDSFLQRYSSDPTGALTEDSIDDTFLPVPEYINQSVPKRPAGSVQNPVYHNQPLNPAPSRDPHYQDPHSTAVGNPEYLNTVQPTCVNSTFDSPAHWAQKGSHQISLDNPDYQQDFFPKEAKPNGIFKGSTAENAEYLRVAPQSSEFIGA
protocol text: Biochemical EGFR kinase inhibition assay (Lance Ultra TR-FRET), double mutant L858R/C797S
run parameters: IC50 L858R/C797S (nM), 100 μM ATP
Property: IC50; scope: individual molecules
The answer consists of two parts: a number and, after it, its unit.

Recorded results for 6 molecules are shown here.
| molecule | system under test | recorded measurement |
| --- | --- | --- |
| O=S(=O)(C1CC1)N1CCC(C#Cc2cnc(Nc3ccnc(-c4cnn(S(=O)(=O)C5CC5)c4)n3)cc2NC2CCC(O)CC2)C1 (centres unmarked) | EGFR L858R/C797S (Homo sapiens, UniProt P00533, C797S/L858R) | 52.5 nM |
| CN1CCN(Cc2ccc(C#Cc3cnc(Nc4ccnc(-c5cnn(S(=O)(=O)C6CC6)c5)n4)cc3N3CCC(C)(O)CC3)cc2)CC1 | EGFR L858R/C797S (Homo sapiens, UniProt P00533, C797S/L858R) | 1.4 nM |
| O=S(=O)(C1CC1)n1cc(-c2nccc(Nc3cc(N[C@H]4CC[C@@H](O)CC4)c(C#Cc4cnn(CC(F)(F)F)c4)cn3)n2)cn1 | EGFR L858R/C797S (Homo sapiens, UniProt P00533, C797S/L858R) | 29.7 nM |
| CN(C)CC1(C)CCN(c2cc(Nc3ccnc(-c4cnn(S(=O)(=O)C5CC5)c4)n3)ncc2C#Cc2cnn(C3CC3)c2)CC1 | EGFR L858R/C797S (Homo sapiens, UniProt P00533, C797S/L858R) | 17.2 nM |
| CC1(O)CCC(CNc2cc(Nc3ccnc(-c4cnn(S(=O)(=O)C5CC5)c4)n3)ncc2C#CC2CCCO2)CC1 (centres unmarked) | EGFR L858R/C797S (Homo sapiens, UniProt P00533, C797S/L858R) | 1550 nM |
| CS(=O)(=O)N1CCC(C#Cc2cnc(Nc3ccnc(-c4cnn(S(=O)(=O)C5CC5)c4)n3)cc2N[C@H]2CC[C@@H](CO)CC2)CC1 | EGFR L858R/C797S (Homo sapiens, UniProt P00533, C797S/L858R) | 36.7 nM |

So, CC1(CO)CCN(c2cc(Nc3ccnc(-c4cnn(S(=O)(=O)C5CC5)c4)n3)ncc2C#Cc2cnc(CN3CCOCC3)s2)CC1 ? Its IC50 was 4.5 nM

So, CC1(CO)CCN(c2cc(Nc3ccnc(-c4cnn(S(=O)(=O)C5CC5)c4)n3)ncc2C#CC2CCN(S(=O)(=O)C3CC3)C2)CC1 (centres unmarked) ? Its IC50 was 51.2 nM

So, O=S(=O)(C1CC1)n1cc(-c2nccc(Nc3cc(NC4CCC(CO)CC4)c(C#Cc4cnn(C5CC5(F)F)c4)cn3)n2)cn1 (centres unmarked) ? Its IC50 was 39.3 nM
